# credit: patent US6827926B2

Tested on: normal skin of CD Hairless male rats
Assay type: in vivo, rat
Conditions: Table 3; time of last skin spot observed post injection; 1 μmol; 532 nm laser
Exercise: state measured Normal skin Response (1 μmol) for each of the compounds provided.
Give your result in h as a bare value.

QUERY: Please report the measured Normal skin Response (1 μmol) for CCC1=C(C)c2cc3[n-]c(cc4nc(cc5[n-]c(cc1n2)c(C)c5CC)C(C)=C4CCCC(=O)OC)c(CCCC(=O)OC)c3C.[Cl-].[In+3]
RESULT: 48

QUERY: For the compound C=CC1=C(C)C2=Cc3c(C=C)c(C)c4[n]3[Sn-2]35([Cl])([Cl])[n]6c(c(C)c(CCC(=O)OC)c6=CC6=[N+]3C(=C4)C(C)=C6CCC(=O)OC)=CC1=[N+]25 , give its measured Normal skin Response (1 μmol) value.
RESULT: 24

QUERY: Report Normal skin Response (1 μmol), nothing else, for this compound: CCC1=C(C)c2cc3[n-]c(cc4nc(cc5[n-]c(cc1n2)c(C)c5CC)C(C)=C4CCCN1CCCC1)c(CCCN1CCCC1)c3C.[In+3].[OH-]
RESULT: 96

QUERY: Given the compound COC(=O)CCC1=C(C)c2cc3[n-]c(cc4nc(cc5[n-]c(cc1n2)c(CCC(=O)OC)c5C)C(CO)=C4C)c(CO)c3C.[Cl-].[Ga+3] , write its reported Normal skin Response (1 μmol).
RESULT: 6

QUERY: Give the reported Normal skin Response (1 μmol) for this compound. CCC1=C(C)C2=NC1=Cc1c(C)c(CC)c3[n]1[Pt][n]1c(c(C)c(CCCC(=O)OC)c1=CC1=NC(=C3)C(C)=C1CCCC(=O)OC)=C2
RESULT: 48

QUERY: Return Normal skin Response (1 μmol) for the following compound: CCCCCCNC(=O)CCC1=C(C)C2=Cc3c(C)c(CC)c4[n]3[Ga-2]35([Cl])[n]6c(c(C)c(CCC(=O)NCCCCCC)c6=CC1=[N+]23)=CC1=[N+]5C(=C4)C(C)=C1CC
RESULT: 96

QUERY: For CCCOC(=O)CCC1=C(C)c2cc3[n-]c(cc4nc(cc5[n-]c(cc1n2)c(CCC(=O)OCCC)c5C)C(CC)=C4C)c(CC)c3C.[Cl-].[Ga+3] , write its Normal skin Response (1 μmol).
RESULT: 6

---

Please provide measured Normal skin Response (1 μmol) for the entries that follow.
Tested on: normal skin of CD Hairless male rats
Format: in vivo, rat
Conditions: rat, in vivo
// units = h; emit number, no label

QUERY: Answer with the recorded Normal skin Response (1 μmol) of CCOC(=O)CCCCC1=C(C)C2=Cc3c(CC)c(C)c4[n]3[Sn]([Cl])([Cl])[n]3c(c(C)c(CCCCC(=O)OCC)c3=CC1=N2)=CC1=NC(=C4)C(CC)=C1C only.
RESULT: 24

QUERY: # return recorded Normal skin Response (1 μmol) for input CCOC(=O)CCC1=C(C)C2=Cc3c(CC)c(CC)c4[n]3[Ga-2]35([Cl])[n]6c(c(C)c(CCC(=O)OCC)c6=CC1=[N+]23)=CC1=[N+]5C(=N4)C(CC)=C1CC
RESULT: 24

QUERY: Look up and report measured Normal skin Response (1 μmol) for this entry: CCC1=C(C)c2cc3[n-]c(cc4nc(cc5[n-]c(cc1n2)c(C)c5CC)C(C)=C4CCCCC(=O)OC)c(CCCCC(=O)OC)c3C.[Cl-].[Ga+3]
RESULT: 6

---

For each record, write down the corresponding Normal skin Response (1 μmol).
Tested on: normal skin of CD Hairless male rats
Type: in vivo, rat
Settings: rat, in vivo
Answer format: numeric, h implied, no suffix.

QUERY: Report Normal skin Response (1 μmol) for CCC1=C(C)c2cc3[n-]c(cc4nc(cc5[n-]c(cc1n2)c(C)c5CC)C(C)=C4CCCO)c(CCCO)c3C.[Cl-].[In+3] [Example 72]
RESULT: 96

QUERY: Supply recorded Normal skin Response (1 μmol) for CCCOC(=O)CCC1=C(C)c2cc3[n-]c(cc4nc(cc5[n-]c(cc1n2)c(CCC(=O)OCCC)c5C)C=C4C)cc3C.[Cl-].[Ga+3] [Example 122] here.
RESULT: 6

QUERY: Give the reported value of Normal skin Response (1 μmol) for this record: COC(=O)CCC1=C(C)c2cc3[n-]c(cc4nc(cc5[n-]c(cc1n2)c(CCC(=O)OC)c5C)C=C4C)cc3C.[Cl-].[Ga+3] [Example 4]
RESULT: 6

QUERY: Look up Normal skin Response (1 μmol) of CCC1=C(C)C2=[N+]3C1=Cc1c(C)c(CC)c4[n]1[Pt-2]31[n]3c(c(C)c(CCC(=O)NC)c3=CC3=[N+]1C(=C4)C(C)=C3CCC(=O)NC)=C2 (centres unmarked) [Example 60, Platinum Mesoporphyrin N-methylamide] and report it.
RESULT: 96

QUERY: Tell us which Normal skin Response (1 μmol) value is on record for CCC1=C(C)c2cc3[nH]c(cc4nc(cc5[nH]c(cc1n2)c(C)c5CCC(=O)NCCN(C)C)C(CCC(=O)NCCN(C)C)=C4C)c(C)c3CC.[Pt] [Example 71]
RESULT: 96

QUERY: Supply recorded Normal skin Response (1 μmol) for CC1=Cc2cc3[n-]c(cc4nc(cc5[n-]c(cc1n2)c(C)c5CCCO)C(CCCO)=C4C)cc3C.[Cl-].[Ga+3] [Example 8] here.
RESULT: 96

QUERY: Please look at this compound and report its Normal skin Response (1 μmol): CC1=Cc2cc3[n-]c(cc4nc(cc5[n-]c(cc1n2)c(C)c5CCC(=O)OCC(F)(F)F)C(CCC(=O)OCC(F)(F)F)=C4C)cc3C.[Cl-].[Ga+3] [Example 38]
RESULT: 24

QUERY: Give me measured Normal skin Response (1 μmol), please, for this compound: C=CC1=C(C)C2=Cc3c(C=C)c(C)c4[n]3[Al-2]35([Cl])[n]6c(c(C)c(CCC(=O)OC)c6=CC6=[N+]3C(=C4)C(C)=C6CCC(=O)OC)=CC1=[N+]25 [M=Al R1=V R3=Me R4=V R2=CO2Me]
RESULT: 6

QUERY: // Input: CCC1=C(C)c2cc3[n-]c(cc4nc(cc5[n-]c(cc1n2)c(C)c5CC)C(C)=C4CCCOC)c(CCCOC)c3C.[Cl-].[In+3] [Example 75] . Output its Normal skin Response (1 μmol) only.
RESULT: 96

QUERY: For the compound CCOC(=O)CCCC1=C(C)C2=Cc3c(C)c(CC)c4[n]3[Ga-2]35([Cl])[n]6c(c(C)c(CCCC(=O)OCC)c6=CC1=[N+]23)=CC1=[N+]5C(=C4)C(C)=C1CC [M=Ga R1=Et R3=Me R4=Et R2=CH2CO2Et] , report Normal skin Response (1 μmol).
RESULT: 24

QUERY: Query Normal skin Response (1 μmol) for CCC1=C(C)c2cc3[n-]c(cc4nc(cc5[n-]c(cc1n2)c(C)c5CC)C(C)=C4CCCCC(=O)[O-])c(CCCCC(=O)[O-])c3C.[Ga+3].[Na+].[Na+].[OH-] [Example 114]
RESULT: 24

---

Exercise: state measured pEC50 for each of the compounds provided.
Test system: V79 (Chinese Hamster Lung Fibroblasts) cells
Test: In vitro cytotoxicity assay (light EC50, Alamar blue)
Type: cell-based
Conditions: Table 4 azaporphyrins, 575 nm (Pt azaporphyrins 532 nm), 1.25 J/cm^2, read-out: In Vitro EC(50)
Scale note: pEC50 = -log10(concentration in M).

QUERY: State, in one line, measured pEC50 of CCC1=C(CC)C2=[N+]3C1=Nc1c(CC)c(CC)c4[n]1[Ga-2]31([Cl])[n]3c(c(C)c(CCC(=O)O)c3=CC3=[N+]1C(=C4)C(C)=C3CCC(=O)O)=C2
RESULT: 6.51

QUERY: Read the entry CCC1=C(CC)C2=Nc3c(CC)c(CC)c4[n]3[Ga]([Cl])[n]3c(c(C)c(CCCC(=O)OC)c3=CC3=NC(=C4)C(C)=C3CCCC(=O)OC)=CC1=N2 and write its reported pEC50.
RESULT: 6.40

QUERY: Give the reported value of pEC50 for this record: CCC1=C(CC)C2=Nc3c(CC)c(CC)c4[n]3[Ga]([Cl])[n]3c(c(C)c(CCC(=O)NCCOC)c3=CC3=NC(=C4)C(C)=C3CCC(=O)NCCOC)=CC1=N2
RESULT: 5.70

QUERY: Tell me measured pEC50 for CCC1=C(CC)c2nc1cc1[nH]c(cc3nc(cc4[nH]c(n2)c(CC)c4CC)C(C)=C3CCC(=O)O)c(CCC(=O)O)c1C please.
RESULT: 6.35

QUERY: For CCC1=C(CC)C2=Nc3c(CC)c(CC)c4[n]3[In]([Cl])[n]3c(c(C)c(CCCOC)c3=CC3=NC(=C4)C(C)=C3CCCOC)=CC1=N2 , write its pEC50.
RESULT: 7.30

QUERY: Output pEC50 of CCC1=C(CC)C2=Nc3c(CC)c(CC)c4[n]3[In]([Cl])[n]3c(c(C)c(CCCO)c3=CC3=NC(=C4)C(C)=C3CCCO)=CC1=N2
RESULT: 7.52

QUERY: Give a short answer stating reported pEC50 for CCC1=C(CC)C2=[N+]3C1=Nc1c(CC)c(CC)c4[n]1[Ga-2]31([Cl])[n]3c(c(C)c(CCC(=O)OC)c3=CC3=[N+]1C(=C4)C(C)=C3CCC(=O)OC)=C2 .
RESULT: 6.40

QUERY: Determine from records and report pEC50 for CCC1=C(CC)C2=Nc3c(CC)c(CC)c4[n]3[Pt][n]3c(c(C)c(CCC(=O)NCCN(C)C)c3=CC3=NC(=C4)C(C)=C3CCC(=O)NCCN(C)C)=CC1=N2
RESULT: 5.92

QUERY: Return pEC50 (reported value) for this compound: CCC1=C(CC)C2=Nc3c(CC)c(CC)c4[n]3[Pt][n]3c(c(C)c(CCC(=O)NC)c3=CC3=NC(=C4)C(C)=C3CCC(=O)NC)=CC1=N2
RESULT: 5.64

QUERY: Return pEC50 for the following compound: CCC1=C(CC)C2=[N+]3C1=Nc1c(CC)c(CC)c4[n]1[In-2]31([Cl])[n]3c(c(C)c(CCC(=O)OC)c3=CC3=[N+]1C(=C4)C(C)=C3CCC(=O)OC)=C2
RESULT: 7.52

QUERY: Please list pEC50 recorded for the compound CCC1=C(CC)C2=[N+]3C1=Nc1c(CC)c(CC)c4[n]1[Pt-2]31[n]3c(c(C)c(CCC(=O)O)c3=CC3=[N+]1C(=C4)C(C)=C3CCC(=O)O)=C2.[K+].[K+] (centres unmarked)
RESULT: 6.40
